# target of assay: T1, recombinant CD40 protein (UniProt P25942 21-193, limits assumed)
# T1 construct: Construct not described; also called CD40 recombinant protein
# T1 sequence (P25942 21-193 limits assumed): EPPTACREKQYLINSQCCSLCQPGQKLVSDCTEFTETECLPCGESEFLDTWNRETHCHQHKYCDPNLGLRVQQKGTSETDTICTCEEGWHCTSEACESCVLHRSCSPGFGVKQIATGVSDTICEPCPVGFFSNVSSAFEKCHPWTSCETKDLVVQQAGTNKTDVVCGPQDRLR
# procedure text: CD40L competition ELISA: antibody (5 µg/ml) preincubated with recombinant CD40 (1.7 µg/ml), complex added to coated CD40L, detected with anti-human F(ab)2-peroxidase; a low signal means competition with CD40L
# Description: Competition of humanized anti-CD40 IgG1-LALA monoclonal antibodies with CD40L binding to CD40 was tested using an ELISA assay. CD40L was coated to the surface of a 384-well Nunc™ MaxiSorp™ plate in a volume of 25 μl PBS and at a concentration of 1 μg/ml for one hour at room temperature. […] After 10 minutes at room temperature, 30 μl Stop solution (1M HCl) was added per well and absorbance at 450 and 620 nm wavelength was measured using a Tecan M1000 microplate reader.
observation type: OD at 450 nm (OD)
The reply should contain only the number, in OD.

Before answering, review these 3 worked examples.
- binder: "MAB-16-0464 (antibody, V domains shown, Humanized IgG1-LALA (L234A, L235A in the human IgG1 Fc, EU numbering)) VH: EVQLEESGGGLVQPGGSLRLSCAASGFDFSSNAMSWVRQAPGKGLEWVGTIYAGSNGNTDYASWAKGRFTISKDTSKTTLYLQMNSLRAEDTATYFCARGASYFTLWGQGTLVTVSS VL: DIVMTQSPSSLSASVGDRVTITCQASESVVSNNRLAWYQQKPGQAPKLLIYLASTLPSGVPSRFSGSGSGTDFTLTISSLQPEDFATYYCAGYKSSSTDGTAFGQGTKVVIK"
  observation type: "OD at 450 nm"
  quantitative result: 0.09
- binder: "MAB-16-0451 (antibody, V domains shown, Humanized IgG1-LALA (L234A, L235A in the human IgG1 Fc, EU numbering)) VH: EVQLEESGGGLVQPGGSLRLSCAASGFDFSSNTMCWVRQAPGKGLEWVACIYAGSSGSTYYASWAKGRFTISKDISKTTLYLQMNSLRAEDTATYFCARGLSRFSLWGQGTLVTVSS VL: DIVMTQSPSSLSASVGDRVTITCQASQSISNYLAWYQQKPGQAPKLLIYDASKLASGVPSRFSGSGSGTDFTLTISSLQPEDFATYYCQGGDYYGSSYVVAFGGGTKVVIK"
  observation type: "OD at 450 nm"
  quantitative result: 0.13
- binder: "MAB-16-0489 (antibody, V domains shown, humanized anti-CD40 IgG1-LALA antibody of the invention) VH: EVQLEESGGGLVQPGASLRLSCAASGIDFSRYFYVCWVRQAPGKGLEWVGCFANHDDSIYYAGWMNGRFTISKDTSKTTLYLQMNSLRAEDTATYFCARGVDYTVGYGGAAFNLWGQGTLVTVSS VL: DIVMTQSPSSLSASVGDRVTITCQASQSIGSYLSWYQQKPGQAPKLLIYRATTLASGVPSRFSGSGSGTDFTLTISSLQPEDFATYYCQSYYRDSSSSAFGQGTKVVIK"
  observation type: "OD at 450 nm"
  quantitative result: 0.01

Lab note: MAB-16-0484 (antibody, V domains shown, humanized anti-CD40 IgG1-LALA antibody of the invention) VH: EVQLEESGGGLVQPGGSLRLSCAASGIDFSRYYYICWVRQAPGKGPEWVACFANGDGSTYYASWAKGRFTISKDTSKTTLYLQMNSLRAEDTATYFCARGADYSGGAAAFNLWGQGTLVTVSS VL: DIQMTQSPSSLSASVGDRVTITCQASQSISSRLAWYQQKPGQAPKLLIYRASTLASGVPSRFSGSGSGTDFTLTISSLQPEDFATYYCQDYYGSSTEYNAFGQGTKVVIK gave OD at 450 nm of 0.07

Lab note: MAB-16-0267 (antibody, V domains shown, humanized anti-CD40 IgG1-LALA antibody of the invention) VH: EVQLEESGGDLVQPGASLRLSCAASGFDFNSNAMSWVRQAPGKGLEWVASIYAGGSGSTYYASWAKGRFTISKDTSKTTLYLQMNSLRAEDTATYFCARGITRLPLWGQGTLVTVSS VL: DIQMTQSPSSLSASVGDRVTITCQASQSISSYLAWYQQKPGQAPKLLIYDASKLASGVPSRFSGSGSGTDFTLTISSLQPEDFATYYCQGTYYGSTTISAFGQGTKVVIK gave OD at 450 nm of 0.1

Lab note: MAB-16-0400 (antibody, V domains shown, humanized anti-CD40 IgG1-LALA antibody of the invention) VH: EVQLEESGGGLVQPGGSLRLSCAASGIDFSRYFYMCWVRQAPGKGLEWVACIGPGVSGDTYYASWAKGRFTISGDTSKTTLYLQMNSLRAEDTATYFCARGVDYTYGDAGAAFNLWGQGTLVTVSS VL: DIVMTQSPSSLSASVGDRVTITCQASQSISSYLAWYQQKPGQAPKLLIYRASILASGVPSRFSGSGSGTDFTLTISSLQPEDFATYYCQTYYSSRTYSYGSPNAFGQGTKVVIK gave OD at 450 nm of 0.08

Lab note: MAB-16-0406 (antibody, V domains shown, humanized anti-CD40 IgG1-LALA antibody of the invention) VH: EVQLEESGGGLVQPGGSLRLSCAASGIDFSRYYYMCWVRQAPGKGPEWVACYSNGDGSTYYASWAKGRFTISKDTSKTTLYLQMNSLRAEDTATYFCARGADYSAGAAAFNLWGQGTLVTVSS VL: DIQMTQSPSSLSASVGDRVTITCQASESIGNALVWYQQKPGQAPKLLIYRASILASGVPSRFSGSGSGTDFTLTISSLQPEDFATYYCQDYYGSSTEYNTFGQGTKVVIK gave OD at 450 nm of 0.07

Lab note: MAB-16-0346 (antibody, V domains shown, humanized anti-CD40 IgG1-LALA antibody of the invention) VH: EVQLEESGGGLVQPGGSLRLSCAASGFDFSTNAVSWVRQAPGKGLEWVGSISAGSSGSTYYASWAKGRFTISKDTSKTTLYLQMNSLRAEDTATYFCARGYTYLTLWGQGTLVTVSS VL: DIVMTQSPSSLSASVGDRVTITCQASHSISSTYLSWYQQKPGQAPKLLIYRASTLASGVPSRFSGSGSGTDFTLTISSLQPEDFATYYCQYTDYGSSYVSTFGQGTKVVIK gave OD at 450 nm of 0.09

Lab note: MAB-16-0262 (antibody, V domains shown, Humanized IgG1-LALA (L234A, L235A in the human IgG1 Fc, EU numbering)) VH: EVQLEESGGGLVQPGGSLRLSCAASGFDFSTNAMCWVRQAPGKGLEWVACIAAGSSIITYYASWAKGRFTISKDTSKTTLYLQMNSLRAEDTAVYFCARGLSRFALWGQGTLVTVSS VL: DIVMTQSPSSLSASVGDRVTITCQASQSISSYLSWYQQKPGQAPKLLIYLTSTLASGVPSRFSGSGSGTDFTLTISSLQPEDFATYYCQGYYSSSSYVSNGFGQGTKVVIK gave OD at 450 nm of 0.11
